Test system: SUDIPGXXI (diffuse intrinsic pontine glioma line)
Assay: EC50 (inflection of fitted growth-inhibition curve) (log10 M)
outcomeMeasure: EC50 (log10 M)

compound	valueObserved
N=C(N)c1ccc(N=NNc2ccc(C(=N)N)cc2)cc1 [BERENIL]	-5.13
CC(C)(C)OC(=O)Nc1ccc(-c2cc(C(=O)NCCCCCCC(=O)NO)no2)cc1 [BML-281]	-6.1
OC1(c2ccc(Cl)c(C(F)(F)F)c2)CCN(CCCC(c2ccc(F)cc2)c2ccc(F)cc2)CC1 [PENFLURIDOL]	-5.9

---

Property: area under dose-response curve; scope: individual molecules
System: HGGX39 (paediatric high-grade glioma line)
Test: area under dose-response curve of % growth inhibition (log2 RLU vs DMSO / staurosporine), 1e-11 to 1e-4 M (% x log10 M); higher = more growth inhibition

molecule	area under dose-response curve
C=CC(=O)N1CCC[C@@H](n2nc(-c3ccc(Oc4ccccc4)cc3)c3c(N)ncnc32)C1 [IBRUTINIB]	50.1
CCC(COC(=O)c1cc(OC)c(OC)c(OC)c1)(c1ccccc1)N(C)C (stereo not drawn) [TRIMEBUTINE]	60.1
COc1cc2c(cc1OCCCN1CCCC1)N=C(N)C21CCC1 [A-366]	9.97
CC1(C)CCC(C)(C)c2cc(NC(=O)c3ccc(C(=O)O)cc3)ccc21 [TAMIBAROTENE]	44.5
O=C1[C@H](Cc2ccc(O)cc2)N2C(=O)CCN(C(=O)NCc3ccccc3)[C@H]2CN1Cc1cccc2ccccc12 [ICG001]	52.2
Nc1ccn([C@H]2CC[C@@H](CO)O2)c(=O)n1 [ZALCITABINE]	14.5
CC(=O)Nc1cccc(-n2c(=O)n(C3CC3)c(=O)c3c(Nc4ccc(I)cc4F)n(C)c(=O)c(C)c32)c1 [TRAMETINIB]	74.7
CCn1c(=O)c(-c2ccc(Cl)cc2Cl)cc2cnc(Nc3ccc(N4CCNCC4)c(F)c3)nc21 [FRAX486]	139
O=C(c1cncc(Br)c1)N1CCC(N2CCCC2)CC1 [UNC669]	0.456
CCCS(=O)(=O)Nc1ccc(F)c(C(=O)c2c[nH]c3ncc(-c4ccc(Cl)cc4)cc23)c1F [VEMURAFENIB]	7.32
CN(C)C(=O)C(CCN1CCC(O)(c2ccc(Cl)cc2)CC1)(c1ccccc1)c1ccccc1 [LOPERAMIDE]	60.8
O=C(N/N=C/c1ccc([N+](=O)[O-])o1)c1ccc(O)cc1 [NIFUROXAZIDE]	39.4
Nc1nc(=O)n([C@H]2C[C@H](O)[C@@H](CO)O2)cc1F [5-FLUORODEOXYCYTIDINE]	39.7
